Data provenance is patent US20170081347A1.

- TARGET SYSTEM: PPARδ (Homo sapiens)
- Sequence (Q03181 whole entry, species assumed): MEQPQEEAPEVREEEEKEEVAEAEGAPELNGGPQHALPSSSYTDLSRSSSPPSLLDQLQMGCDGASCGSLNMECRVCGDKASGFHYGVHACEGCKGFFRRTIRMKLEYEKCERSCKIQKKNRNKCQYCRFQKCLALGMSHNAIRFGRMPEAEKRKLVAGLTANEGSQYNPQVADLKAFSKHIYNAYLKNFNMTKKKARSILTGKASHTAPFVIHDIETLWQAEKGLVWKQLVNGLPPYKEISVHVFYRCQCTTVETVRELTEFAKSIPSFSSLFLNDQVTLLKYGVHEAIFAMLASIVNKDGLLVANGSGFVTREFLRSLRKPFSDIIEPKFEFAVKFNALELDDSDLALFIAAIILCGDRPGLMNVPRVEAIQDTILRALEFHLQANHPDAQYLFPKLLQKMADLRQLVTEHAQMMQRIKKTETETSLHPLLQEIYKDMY
- EXPERIMENT NOTES: PPARδ antagonist
- Format: biochemical
- CONDITIONS USED: antagonist; read-out: PPARδ antagonist IC50
ENDPOINT NAME: IC50 (nM)
Give the value, in units of nM, as a plain number.

Bench note: what IC50 did "O=C(NCCS(=O)(=O)c1ccc(C(F)(F)F)cn1)c1ccc(B2C=CCCN2)cc1" show?
1400

----------
- TARGET SYSTEM: Opioid μ (Homo sapiens)
- Sequence (P35372 whole entry): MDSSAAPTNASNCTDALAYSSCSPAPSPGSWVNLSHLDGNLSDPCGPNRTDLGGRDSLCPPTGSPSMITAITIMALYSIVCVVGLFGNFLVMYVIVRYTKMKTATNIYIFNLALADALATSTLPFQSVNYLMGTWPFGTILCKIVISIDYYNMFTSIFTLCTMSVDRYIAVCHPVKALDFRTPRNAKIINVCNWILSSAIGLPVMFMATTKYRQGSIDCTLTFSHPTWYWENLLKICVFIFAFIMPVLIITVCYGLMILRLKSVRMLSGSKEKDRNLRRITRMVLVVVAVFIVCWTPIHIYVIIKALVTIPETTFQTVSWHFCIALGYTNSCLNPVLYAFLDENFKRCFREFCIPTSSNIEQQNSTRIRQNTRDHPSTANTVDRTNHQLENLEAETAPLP
- EXPERIMENT NOTES: Opioid μ antagonist
- Type: biochemical
ENDPOINT NAME: pIC50
pIC50 here is simply -log10 of the concentration when that concentration is written in mol/L.

Which pIC50 value is on record for "CC(C)[C@@H](CN1CCN(c2cccc(O)c2)[C@@H](C)C1)NC(=O)c1ccc(B2C=CCCN2)cc1" ?
6.00

----------
- EXPERIMENT NOTES: PAMPA (parellel artificial membrane permeability assay)
- Format: in vitro ADME
- Design: unit not given here
ENDPOINT NAME: PAMPA
# respond with the number and nothing more

{"COMPOUND": "CC(C)[C@@H](CN1CCN(c2cccc(O)c2)[C@@H](C)C1)NC(=O)c1ccc(B2C=CCCN2)cc1", "ENDPOINT RESULT": "−5.0"}
{"COMPOUND": "CC(C)[C@@H](CN1CCN(c2cccc(O)c2)[C@@H](C)C1)NC(=O)c1ccc(-c2ccccc2)cc1", "ENDPOINT RESULT": "−5.7"}
{"COMPOUND": "O=C(NCCS(=O)(=O)c1ccc(C(F)(F)F)cn1)c1ccc(-c2ccccc2)cc1", "ENDPOINT RESULT": "−4.2"}
{"COMPOUND": "O=C(NC1CCN(Cc2ccccc2)C1)c1ccc(B2C=CC=CN2)cc1 (centres unmarked)", "ENDPOINT RESULT": "−4.8"}
{"COMPOUND": "Cl.O=C(Cc1ccc(-c2ccccc2)cc1)Nc1cc(C2CC2)n[nH]1", "ENDPOINT RESULT": "−3.9"}

Can you share its PAMPA? I mean this compound: "COc1ccc2[nH]cc(CCNC(=O)c3ccc(B4C=CC=CN4)cc3)c2c1"
−4.2

Need PAMPA, item "COc1ccccc1N1CCN(CCCCNC(=O)c2ccc(B3C=CC=CN3)cc2)CC1"
−4.3

Dear colleague, I am looking for the recorded PAMPA of the following compound: "CN(CCc1c[nH]c2ccccc12)C(=O)c1ccc(B2C=CC=CN2)cc1"
−4.2

Given the compound "CN(CCc1c[nH]c2ccccc12)C(=O)c1ccc(-c2ccccc2)cc1" , what is its reported PAMPA?
−4.5

Fill blank: measured PAMPA of the compound O=C(NC1CCN(Cc2ccccc2)C1)c1ccc(-c2ccccc2)cc1 (centres unmarked) is ____.
−3.6

# get_value(readout='PAMPA', item= "O=C(NCc1ccncc1)c1ccc(B2C=CC=CN2)cc1" )
−4.6

Can you look up the measured PAMPA of "COc1ccc2[nH]cc(CCNC(=O)c3ccc(-c4ccccc4)cc3)c2c1" for me?
−4.1

I'd like to know its PAMPA. The compound in question is "O=C(NCCS(=O)(=O)c1ccc(C(F)(F)F)cn1)c1ccc(B2C=CCCN2)cc1"
−4.5

Could you share which PAMPA value was measured for "COc1ccccc1N1CCN(CCCCNC(=O)c2ccc(-c3ccccc3)cc2)CC1" ?
−3.9
